ASSAY_TARGET: Ribonucleoside-diphosphate reductase (Escherichia coli)
METHOD_SUMMARY: Compound was evaluated for time-dependent inactivation of Ribonucleotide diphosphate reductase (RDPR) in Escherichia coli
METRIC: pKi
In simple prose, pKi is minus the logarithm base ten of a concentration in moles per litre.

What value of measured pKi is listed for C=C1[C@H](n2ccc(=O)[nH]c2=O)O[C@H](COP(=O)(O)OP(=O)(O)O)[C@H]1O ?
3.08
